Target: hPIV-N51 (139-189) (human parainfluenza virus (hPIV))
Sequence (P06828 139-189): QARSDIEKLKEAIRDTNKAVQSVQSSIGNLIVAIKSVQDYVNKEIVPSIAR
endpoint-label: pKd
Lab note: report pKd as minus log10 of the concentration in molar units, number only.

State, in one line, measured pKd of SDEFDKKIEEVNKKIEESLKKIEESDKKLGSGSGK (modifications not checked) [Compound 20] 5.17

For DEFDKKIEEVNKKIEESLKKIEESDKKLEEVNEAAAKK (modifications not checked) [Compound 14] , write its pKd. 6.31

Hello, please tell me recorded pKd for this one: DEFDASISQVNEKINQSLEEIRKSDELLHNEAAAKK (modifications not checked) [Compound 28] 3.01

Using known records, supply pKd for YDELVFDASQVNEKINQSLEKIRKSDELLHNVGSGSGK (modifications not checked) [Compound 25] 4.13

Identify measured pKd associated with SDELVNKKIEFDKKINQSLKKIEESDKKKLEAAAKK (modifications not checked) [Compound 51] 7.29

Identify measured pKd associated with WDEFDKKIEEVNKKIEESLKKIEESDKKLEAAAKK (modifications not checked) [Compound 13] 5.64

Fill in reported pKd for this entry: FDEEISQVNEKINQSLAFIRKSDELLHNVNAGKSTTEAAAKK (modifications not checked) [Compound 26] 5.59

Give pKd for the following binder: DEFDKKKIEEVNKKIEESLKKIEESDKKLEEVEAAAKK (modifications not checked) [Compound 22] 4.68

Give the reported pKd for this binder. WDEFDASIEEVNRRIEESLRRIEESDRRLEEVEAAAKK (modifications not checked) [Compound 43] 5.24

Quickly give me recorded pKd for SDEFDKKIEEVNKKIEESLKKIEESDKKLEAAAKK (modifications not checked) [Compound 16] 5.27

For WDEFDKKIEEVNKKIEESLKKIEESDKKLEEVNAEAAAKK (modifications not checked) [Compound 40] , write its pKd. 5.64

Given WDEFDASISQVNEKINQSLEEIRKSDELLHNVNALEAAAKK (modifications not checked) [Compound 38] , respond with its pKd. 4.61

Please report pKd for the following binder: WDEFDASISQVNEKINQSLEEIRKSDELLHNEAAAKK (modifications not checked) [Compound 45] 3.75
